Below is a list of entries, each paired with its recorded pIC50 value.
test.method.notes: Compound was evaluated for cytotoxicity against human ovarian cancer cell A2780
Format: functional, cell-based
test.conditions: Cancer cell lines
Scale: pIC50 equals -log10([C]), with [C] in mol/L.

Sample records with pIC50:
# compound, pIC50
data = [
    ("CCN(CC)CCOc1ccc2c(c1)OC1C(=O)c3ccccc3C(=O)C21 (stereo not drawn)", 6.82),
    ("CN(C)CCc1ccc2nc3c4ccccc4n(CCN(C)C)c3cc2c1", 4.90),
]

Annotate the compound c1ccc2nc3c(cc2c1)[nH]c1ccccc13 with its measured pIC50. 4.67

* * *

target.under.test: UniProt:O14746
Sequence (O14746 whole entry): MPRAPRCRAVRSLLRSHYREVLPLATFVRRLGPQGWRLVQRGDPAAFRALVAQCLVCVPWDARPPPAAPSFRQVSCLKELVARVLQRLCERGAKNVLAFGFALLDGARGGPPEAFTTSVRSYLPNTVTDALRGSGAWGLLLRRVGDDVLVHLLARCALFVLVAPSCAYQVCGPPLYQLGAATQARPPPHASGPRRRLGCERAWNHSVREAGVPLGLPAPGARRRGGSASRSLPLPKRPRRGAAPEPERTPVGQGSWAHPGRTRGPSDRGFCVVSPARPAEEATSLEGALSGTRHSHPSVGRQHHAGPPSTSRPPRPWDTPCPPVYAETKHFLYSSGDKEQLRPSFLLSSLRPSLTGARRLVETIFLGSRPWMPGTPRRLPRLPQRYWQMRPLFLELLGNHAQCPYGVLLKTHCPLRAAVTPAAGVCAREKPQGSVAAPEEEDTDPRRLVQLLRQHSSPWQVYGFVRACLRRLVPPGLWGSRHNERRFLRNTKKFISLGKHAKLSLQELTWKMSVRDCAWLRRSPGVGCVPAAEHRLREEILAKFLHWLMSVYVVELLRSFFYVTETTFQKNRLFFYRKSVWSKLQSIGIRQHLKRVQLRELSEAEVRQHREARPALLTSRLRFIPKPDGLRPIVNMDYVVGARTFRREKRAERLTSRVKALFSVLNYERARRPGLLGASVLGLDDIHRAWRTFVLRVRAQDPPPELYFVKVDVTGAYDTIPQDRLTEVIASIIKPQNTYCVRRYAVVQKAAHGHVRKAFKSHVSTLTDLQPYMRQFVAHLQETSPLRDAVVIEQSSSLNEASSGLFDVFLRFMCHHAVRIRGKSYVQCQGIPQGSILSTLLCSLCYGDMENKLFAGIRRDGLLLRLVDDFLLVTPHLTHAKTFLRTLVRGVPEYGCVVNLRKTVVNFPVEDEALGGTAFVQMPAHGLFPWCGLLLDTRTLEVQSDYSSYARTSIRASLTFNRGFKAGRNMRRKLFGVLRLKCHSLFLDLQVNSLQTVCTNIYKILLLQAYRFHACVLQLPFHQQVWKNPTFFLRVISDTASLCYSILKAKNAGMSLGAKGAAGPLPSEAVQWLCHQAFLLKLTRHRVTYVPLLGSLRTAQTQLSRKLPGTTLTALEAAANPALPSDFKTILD
test.method.notes: Inhibitory activity against human ovarian cancer cell (A2780 cells) Telomerase
value.kind: IC50 (µM)
Numeric only. Scale: µM

# molecule, value.kind, test.result
measured = [
    ("CCN(CC)CCOc1ccc2c(c1)OC1C(=O)c3ccccc3C(=O)C21 (configuration not stated)", "IC50", 7),
]

Let us examine a further case.
Annotate the molecule CN(C)CCc1ccc2nc3c4ccccc4n(CCN(C)C)c3cc2c1 with its measured IC50. 16
